For reference, the following IC50 results for MAGL (Homo sapiens, UniProt Q99685) were taken from various sources.
Flag rule - IC50 less than 20 nM flags condition met; the remaining entries get condition not met.

Data request: Does `O=C(c1cc2cc(-c3cccc(C(F)(F)F)c3)ccc2s1)N1CC(N[C@H]2CCN(C(=O)c3nccs3)C2)C1` have IC50 strictly under 20 nM?
Data returned: condition met

Data request: Does `O=C(c1ccc2c(c1)CCN2C(=O)c1ccccc1)N1CC(N2CCN(C(=O)c3nccs3)CC2)C1` have IC50 strictly under 20 nM?
Data returned: condition not met

Data request: Does `O=C(c1ccc(-c2ccccc2)cc1)N1CC(N2CCN(c3ncccn3)C(=O)C2)C1` have IC50 strictly under 20 nM?
Data returned: condition not met

Data request: Does `O=C1CO[C@H]2CCN(C(=O)N3CC(Cc4cccc(OC(F)(F)F)c4)C3)C[C@H]2N1` have IC50 strictly under 20 nM?
Data returned: condition not met

Data request: Does `O=C1CO[C@H]2CCN(C(=O)N3C[C@@H]4[C@H](C3)[C@H]4c3ccn(-c4ccc(F)cc4)n3)C[C@H]2N1` have IC50 strictly under 20 nM?
Data returned: condition not met

Data request: Does NCCOCCC(=O)NCCOc1cccc([C@@H](c2ccccc2)C2CCN(C(=O)N3CC[C@@H]4OCC(=O)N[C@@H]4C3)CC2)c1 (single isomer, unassigned) have IC50 strictly under 20 nM?
Data returned: condition met

Data request: Does `COc1cccc(C(=O)N2CCN3C[C@](O)(c4ccc(F)c(F)c4)CC[C@H]3C2)c1Cl` have IC50 strictly under 20 nM?
Data returned: condition not met

Data request: Does `CS(=O)(=O)c1cc(Cl)ccc1-c1ccc(C2CN(C(=O)CC[C@@H]3COC(=O)N3)C2)cn1` have IC50 strictly under 20 nM?
Data returned: condition met

Data request: Does `O=C(c1ccc2c(-c3ccccc3)ncnc2c1)N1CC(N2CCN(C(=O)c3nccs3)CC2)C1` have IC50 strictly under 20 nM?
Data returned: condition not met

Data request: Does `N#Cc1cc(-c2cccc(C(=O)N3CCN4C[C@@H](c5cc(Cl)c[nH]c5=O)OC[C@@H]4C3)c2Cl)c[nH]1` have IC50 strictly under 20 nM?
Data returned: condition met

Data request: Does `CC(C)(C)OC(=O)NCCOc1cccc(C(=C2CCN(C(=O)N3CC[C@@H]4OCC(=O)N[C@@H]4C3)CC2)c2ccccc2)c1` have IC50 strictly under 20 nM?
Data returned: condition met

Data request: Does `Cc1ccc2oc(N3CCN(C(=O)c4ccc(-c5nnn(CC(C)(C)C)n5)c(F)c4)CC3)nc2n1` have IC50 strictly under 20 nM?
Data returned: condition met

Data request: Does `O=C(c1nccs1)N1CCN(C2CN(C(=O)c3ccc(-c4ccccc4)cc3Cl)C2)CC1` have IC50 strictly under 20 nM?
Data returned: condition met
